- TGT: Glucocorticoid receptor (Homo sapiens)
- METHOD_NOTES: GR-GFP Redistribution (AID 450)
- TEST_CONDITIONS: U2OS GR-GFP nuclear translocation, laser cytometry, 2 h; series mostly up to 20.6 µM
The source made the active and inactive calls.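 Rule for the calls: active = compounds whose dose series gives a full or clear partial fitted curve of increased nuclear translocation; inconclusive = weak partial curve or effect only at the top dose; inactive = no dose-dependent translocation response.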
Labels: active, inactive

INSERT INTO measurements (compound, tgt, classification) VALUES
  ('CCCCCCCC(=O)OCC(=O)[C@@]1(O)CC[C@H]2[C@@H]3CCC4=CC(=O)CC[C@]4(C)[C@H]3[C@@H](O)C[C@@]21C', 'Glucocorticoid receptor (Homo sapiens)', 'active'),
  ('COc1cccc(NC(=O)CC2SC(=Nc3ccccc3)NC2=O)c1 (stereo not given)', 'Glucocorticoid receptor (Homo sapiens)', 'inactive'),
  ('CC1(C)Cc2c(sc3c2C2=NCCN2C=N3)CS1', 'Glucocorticoid receptor (Homo sapiens)', 'inactive'),
  ('CN(C)C(CN1C(=O)C2CC=CCC2C1=O)c1cn(C)c2ccccc12 (stereo not given)', 'Glucocorticoid receptor (Homo sapiens)', 'inactive'),
  ('COc1cccc(C2/C(=C(/O)c3cnn(-c4ccccc4)c3C)C(=O)C(=O)N2CCN(C)C)c1OC (stereo not given)', 'Glucocorticoid receptor (Homo sapiens)', 'inactive'),
  ('CCCCCNc1nc(N2CCCC2)c2c(c1C#N)CCN(C)C2', 'Glucocorticoid receptor (Homo sapiens)', 'inactive'),
  ('COc1ccc(-c2oc3ncn4nc(Cc5ccccc5)nc4c3c2-c2ccc(OC)cc2)cc1', 'Glucocorticoid receptor (Homo sapiens)', 'inactive'),
  ('COCCNc1oc(-c2ccc(Cl)cc2)nc1C#N', 'Glucocorticoid receptor (Homo sapiens)', 'inactive'),
  ('CCOC(=O)c1c(CNCCN(CC)CC)n(C)c2cc(Br)c(OC)cc12', 'Glucocorticoid receptor (Homo sapiens)', 'inactive'),
  ('Cc1cc(N2C(=O)C(=O)/C(=C(/O)c3ccc(F)cc3)C2c2ccc(F)cc2)no1 (stereo not given)', 'Glucocorticoid receptor (Homo sapiens)', 'inactive');

* * *

- Test system: CP191
- METHOD_NOTES: qHTS profiling for inhibitors of Plasmodium falciparum proliferation (AID 504749); note: nearly all actives have a fitted effect of over 60% in size
- TEST_CONDITIONS: P. falciparum in erythrocytes, SYBR Green DNA, 72 h; series mostly up to 28.7 µM
Inconclusive results are not listed. Calls of active or inactive are those of the source. The call rests on the fitted dose curve; in most records, active means well fitted inhibition curve with a large enough effect; inconclusive means small, poorly fitted or top-dose-only effect; inactive means flat fitted curve, though single readings scatter.
Labels: T (active), F (inactive)

INSERT INTO assay_data (compound, classification) VALUES
  ('C=C1NC(=O)c2cc(CN(C)c3ccc(C(=O)N[C@@H](CCC(=O)O)C(=O)O)s3)ccc2N1', 'F'),
  ('Cc1cnc(C(=O)O)cn1', 'F'),
  ('O=[N+]([O-])O[C@H]1CO[C@H]2[C@@H]1OC[C@H]2O', 'F'),
  ('NC(=O)c1ncn(C2OC(CO)C(O)C2O)c1N (centres undefined)', 'F'),
  ('C[C@]12CCC(=O)C=C1[C@@H]1C[C@H]1[C@H]1[C@@H]3[C@@H]4C[C@H]4[C@@]4(CCC(=O)O4)[C@@]3(C)CC[C@@H]12', 'F'),
  ('O=C1CC[C@H](C(=O)N[C@@H]2C[C@H]2c2ccccc2)N1', 'F'),
  ('CC(=O)OC1C([N+]2(C)CCCCC2)C[C@H]2C3CC[C@H]4C[C@H](OC(C)=O)C([N+]5(C)CCCCC5)CC4(C)C3CCC12C (some centres undefined)', 'F'),
  ('CC(=O)OCC(=O)[C@@]1(O)CCC2C3C[C@H](C)C4=CC(=O)C=CC4(C)C3C(O)CC21C (some centres undefined)', 'F'),
  ('CCCCCOC(=O)Nc1nc(=O)n(C2O[C@H](C)[C@@H](O)[C@@H]2O)cc1F (some centres undefined)', 'T');

FYI, the data here is from PubChem BioAssay (NCATS).
